Biological target: X-box-binding protein 1 (Homo sapiens)
Experiment: XBP1 reporter suppression in cells – counter-screen, dose response (AID 504313);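 note: CHO cells carrying an XBP1 reporter stimulated with tunicamycin; potency is for inhibition of the tunicamycin-induced reporter signal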
Details: XBP1 reporter cell assay, percent of control
The source made the active and inactive calls. The rule behind the calls is not given here.
Just give me one of these, please: active, inactive

The following molecules have reported results that may help.
- MOLECULE: "Clc1ccc2c(N/N=C/c3ccc(Br)cc3)ccnc2c1"
  TARGET_OR_TEST_SYSTEM: "X-box-binding protein 1 (Homo sapiens)"
  CAT: "inactive"
- MOLECULE: "Cc1ccc(-c2[nH]ncc2/C=N/n2c(COc3ccccc3)nc3ccccc3c2=O)cc1"
  TARGET_OR_TEST_SYSTEM: "X-box-binding protein 1 (Homo sapiens)"
  CAT: "inactive"
- MOLECULE: "Cc1ccc(CNCc2cc3c(C(C)(C)C)nn(-c4ccccc4)c3[nH]c2=O)cc1"
  TARGET_OR_TEST_SYSTEM: "X-box-binding protein 1 (Homo sapiens)"
  CAT: "inactive"
- MOLECULE: "O=C1C(Nc2ccccc2)=C/C(=N/S(=O)(=O)c2cccs2)c2ccccc21"
  TARGET_OR_TEST_SYSTEM: "X-box-binding protein 1 (Homo sapiens)"
  CAT: "active"
- MOLECULE: "Cc1ccc(NC(=O)O/N=C/c2c(C)nn(C(C)(C)C)c2C)cc1Cl"
  TARGET_OR_TEST_SYSTEM: "X-box-binding protein 1 (Homo sapiens)"
  CAT: "active"
- MOLECULE: "CC(C)(C)C(=O)Cn1ncc(Br)c(Br)c1=O"
  TARGET_OR_TEST_SYSTEM: "X-box-binding protein 1 (Homo sapiens)"
  CAT: "inactive"

What did this assay record as the result for CN1C2CCC1/C(=C/c1ccccn1)C(=O)/C2=C\c1ccccn1 ?
active

What did this assay record as the result for OC(CNCCc1ccc(C(F)(F)F)cc1)COc1ccc2ccccc2c1 (stereo unspecified) ?
inactive

What did this assay record as the result for O=C(OCn1ncc(Cl)c(Cl)c1=O)c1ccc(C(F)(F)F)cc1 ?
inactive

What did this assay record as the result for O=c1c(Cl)c(Cl)cnn1-c1ccccc1 ?
inactive

What did this assay record as the result for Cc1nc(SCC(=O)Nc2ccc(F)cc2)c(C#N)c(C)c1CC(=O)c1ccc(Br)cc1 ?
inactive

----------
Target: UniProtKB P17861
Assay: XBP1 reporter suppression in cells – counter-screen, dose response (AID 504313);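 note: CHO cells carrying an XBP1 reporter stimulated with tunicamycin; potency is for inhibition of the tunicamycin-induced reporter signal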
Conditions: XBP1 reporter cell assay, percent of control
Active and inactive are the calls of the source. No rule for the calls is given here.
Just give me one of these, please: Y (active), N (inactive)

The following compounds have reported results that may help.
- COMPOUND: "CC(C)C[C@H](NC(=O)OC(C)(C)C)C(=O)N/N=C/C1=Cc2ccccc2OC1C (stereo not given in full)"
  TARGET_OR_TEST_SYSTEM: "UniProtKB P17861"
  CAT: "N"
- COMPOUND: "N#C/C(=C\\c1ccc([N+](=O)[O-])o1)C(=O)Nc1ccc(F)cc1"
  TARGET_OR_TEST_SYSTEM: "UniProtKB P17861"
  CAT: "N"
- COMPOUND: "CCN1/C(=C/c2ccc3cc(C)ccc3[n+]2C)Sc2ccc3sccc3c21"
  TARGET_OR_TEST_SYSTEM: "UniProtKB P17861"
  CAT: "Y"

What did this assay record as the result for COc1cc(/C=C(/C#N)c2nc3ccccc3[nH]2)ccc1OCC(=O)Nc1ccccc1C(C)C ?
N

What did this assay record as the result for CCCC(=O)NC(NC(=S)Nc1ccc(N=Nc2ccccc2)cc1)C(Cl)(Cl)Cl (stereo not given) ?
N
